# System name: lactate dehydrogenase (LDH)
# Test description: phage ELISA, 405 nm; LDH coated
Measurement name: LDH (OD)

// solved cases for LDH (OD) follow
Ask: Could you tell me which LDH (OD) is on file for FSSVLGLLDRRGVPVVVGEDAAAGAPVPYPDPLEPRP (peptide, not shown: large carriers) [DGI-2-20F-3-C3] ?
Result: 0.9

Ask: Could you tell me which LDH (OD) is on file for TANGHRYGGCGLWCKWMSGMAAAGAPVPYPDPLEPRP (peptide, not shown: large carriers) [DGI-2-20R-4-E2] ?
Result: 1.1

Ask: Could you tell me which LDH (OD) is on file for RNWLDKDCVWMGDCGARAGEAAAGAPVPYPDPLEPRP (peptide, not shown: large carriers) [DGI-2-20F-4-E3] ?
Result: 0.9

Ask: Could you tell me which LDH (OD) is on file for SLSLYWDAQVGCEVFWGYCVAAAGAPVPYPDPLEPRP (peptide, not shown: large carriers) [DGI-2-20R-3-C10] ?
Result: 1

Ask: Could you tell me which LDH (OD) is on file for LQIVRPAGWKMPGQVGYYIGAAAGAPVPYPDPLEPRP (peptide, not shown: large carriers) [DGI-2-20R-3-A9] ?
Result: 1

Ask: Could you tell me which LDH (OD) is on file for ACSVGTALVFPQRWWYLGRSAAAGAPVPYPDPLEPRP (peptide, not shown: large carriers) [DGL-2-20R-3-D6] ?
Result: 1.1

[1] DGI-2-40F-3-A12 (peptide, not shown: large carriers) peptide: RRTQPAYRSGADDRTSGFYCYVTSALSAGAWMPFLPRRLAAAAGAPVPYPDPLEPRP
[2] LTWGPQFGSLQVYSRHRGLPAAAGAPVPYPDPLEPRP (peptide, not shown: large carriers) [DGI-2-20R-4-E4]
Ask: Lower value for measured LDH (OD)? Options: 1 , 2 State your choice using its label.
Result: 1
(1: 0.8 OD, 2: 1.2 OD)
